Give melting point for every item shown.

Request the reported melting point associated with CC(C)Oc1ccc(C(=O)O)c(C(=O)O)c1
116 to 118 °C

Request the reported melting point associated with CC(C)(c1ccc(OC#N)cc1)c1ccc(OC#N)cc1
82 °C

Request the reported melting point associated with COc1cc2c(cc1OC)C(C(C#N)SCCCO)=NCC2 (stereo not given)
155 to 156 °C

Request the reported melting point associated with CC1(C)Cc2cc(N)c3c(c2C(c2ccccc2)=N1)CC(C)(C)O3
158 to 162 °C

Request the reported melting point associated with CN(C)CCN1Cc2cccc3cccc(c23)S1(=O)=O
97 to 98 °C

Request the reported melting point associated with CN(C)CCn1c(-c2ccc(Cl)cc2)cc2c1CCSC2
91.5 to 92.5 °C

Request the reported melting point associated with COc1c(C)c(C)c(OC)c(CN2C(=O)C3CCCC3=Nc3ccccc32)c1C (stereo not given)
202 to 204 °C

Request the reported melting point associated with CCOC(=O)C(Cc1ccc(OCCN2CCC(C)(C)c3cc(C(=NOC)c4ccccc4)ccc32)cc1)Nc1ccccc1C(=O)c1ccccc1 (stereo not given)
78 to 80 °C

Request the reported melting point associated with COc1cc(-c2ccc(C#N)cc2)c2nc(-c3ccc(OC)c(F)c3)cc(O)c2c1
248 to 250 °C

Request the reported melting point associated with COc1ccc2c(c1)c1c(n2Cc2ccccc2)CCCC1=O
174 to 175 °C

Request the reported melting point associated with Nc1cc(Sc2ccc(Cl)cc2)nc(-c2ccccc2)n1
118 to 121 °C

Request the reported melting point associated with COc1cc(OC)nc(NC(=O)NS(=O)(=O)c2ccccc2S(=O)(=O)OCC(F)(F)F)n1
203 to 205 °C

Request the reported melting point associated with O=C(O)c1ccc(-c2cccc(C(=O)O)c2)cc1
> 250 °C

Request the reported melting point associated with COc1ccc(CNc2nc(CCCC(=O)O)nc3sc(Cl)cc23)cc1Cl
114 °C

Request the reported melting point associated with O=C(Cc1ccncc1)NC(Cc1csc2ccccc12)C(=O)CCc1cc(C(F)(F)F)cc(C(F)(F)F)c1 (stereo not given)
184 to 187 °C

Request the reported melting point associated with COc1cc(NC(=O)Nc2c(-c3ccccc3C)c3cc(C)c(C)cc3oc2=O)cc(OC)c1OC(C)=O
238 to 240 °C

Request the reported melting point associated with CCOC(=O)c1oc(SC)c2c1CCC(Br)C2=O (stereo not given)
130 to 131 °C

Request the reported melting point associated with CC(C)Oc1cc(F)nc(N)n1
66 to 68 °C

Request the reported melting point associated with Cc1ccccc1CC(=NC#N)NC(NC(=O)Cc1ccc(Cl)cc1)C(C)(C)C (stereo not given)
183 to 185 °C

Request the reported melting point associated with Cc1ccc2c(c1NC(=O)CC1c3ccccc3Oc3ccccc31)OC(C)C2 (stereo not given)
290 to 291 °C
